test: Inhibition of recombinant thrombin Lys235Ala mutant expressed in BHK cells assessed as spectrozyme TH hydrolysis after 10 mins; format: cell-based
measured.attribute: IC50 (µM)
State the answer as a number, implicitly in µM.

Input: # input molecule: CCOC(=O)c1c(C)oc2cc(OC)c(OCc3oc4cc(OC)c(OS(=O)(=O)[O-])cc4c3C(=O)OCC)cc12.[Na+] ; wanted: its IC50
Output: 4.9

* * *

test: Inhibition of wild type human plasma alpha-thrombin assessed as spectrozyme TH hydrolysis after 10 mins in absence of exosite 2 ligand FibP
measured.attribute: pIC50
Scale note: pIC50 = -log10(concentration in M).

Input: # input compound: CCOC(=O)c1c(C)oc2cc(OC)c(OCc3oc4cc(OC)c(OS(=O)(=O)[O-])cc4c3C(=O)OCC)cc12.[Na+] ; wanted: its pIC50
Output: 5.10
